tested on: P12-Ichikawa; experiment: AUC of viability dose-response curve (% viability x log10 dose units); higher = less sensitive; conditions: RPMI 5 mM glucose + 10% FBS; 48 h
Measure: AUC of viability dose-response curve
The answer should be a number; do not append a unit.

INSERT INTO measurements (compound, result_value) VALUES
  ('OCc1ccc(-c2nn(Cc3ccccc3)c3ccccc23)o1', 464);

Prompt: Reported AUC of viability dose-response curve for P12-Ichikawa, given O=C(/C=C/c1c(C(=O)[O-])[nH]c2cc(Cl)cc(Cl)c12)Nc1ccccc1 ?
Completion: 464

Prompt: Report AUC of viability dose-response curve for CC(=O)Nc1ccc([C@H](C)C(=O)Nc2ncc(C(C)C)s2)cc1 tested on P12-Ichikawa.
Completion: 411

Prompt: Record Cc1c(O)cccc1C(=O)N[C@@H](CSc1ccccc1)[C@H](O)CN1C[C@H]2CCCC[C@H]2C[C@H]1C(=O)NC(C)(C)C : what is its AUC of viability dose-response curve with P12-Ichikawa?
Completion: 459

Prompt: What is its AUC of viability dose-response curve for P12-Ichikawa? Entry: C[C@@H]1CN[C@H]2[C@@H](C)[C@@]\3(CC[C@H]\4[C@@H]5C/C=C6/C[C@@H](O)CC[C@]6(C)[C@H]5CC4=C3C)O[C@@H]2C1
Completion: 441

Prompt: P12-Ichikawa / AUC of viability dose-response curve / CO[C@H]1C[C@@H]2CC[C@@H](C)[C@@](O)(O2)C(=O)C(=O)N2CCCC[C@H]2C(=O)O[C@H]([C@H](C)C[C@@H]2CC[C@@H](OC(=O)C(C)(CO)CO)[C@H](OC)C2)CC(=O)[C@H](C)/C=C(\C)[C@@H](O)[C@@H](OC)C(=O)[C@H](C)C[C@H](C)/C=C/C=C/C=C/1C : value?
Completion: 409

Prompt: Form field - read-out: AUC of viability dose-response curve; system: P12-Ichikawa; submitted item: NC(=O)c1ncn([C@@H]2O[C@H](CO)[C@@H](O)[C@H]2O)n1
Completion: 424

Prompt: Please tell me: AUC of viability dose-response curve of CNC1[C@@H](O)C(O[C@@H]2C(O)C(O[C@H]3O[C@H]([C@@H](C)NC)CC[C@H]3N)[C@@H](N)C[C@H]2N)OC[C@]1(C)O (some centres not stated) , system P12-Ichikawa?
Completion: 444

* * *

system: NOMO1; assay: cell viability relative to DMSO control; higher = less cytotoxic; conditions: RPMI 5 mM glucose + 10% dialyzed FBS; 48 h; 0.0632 µM
Reported values of cell viability for individual entries
Dear colleague, please return just the value in %, with no unit written.

// solved cases for cell viability follow
INSERT INTO results (compound, unit_label, result_value) VALUES
  ('c1cc(CN2CCCNCCNCCCNCC2)ccc1CN1CCCNCCNCCCNCC1', '%', 98.3),
  ('O=C(O)c1ccc(-n2nc(-c3ccccc3O)nc2-c2ccccc2O)cc1', '%', 87),
  ('CC(C)(C)C(=O)OCOP(=O)(COCCn1cnc2c(N)ncnc21)OCOC(=O)C(C)(C)C', '%', 78.5),
  ('CCC[C@H](N[C@@H](C)C(=O)N1[C@H](C(=O)O)C[C@@H]2CCCC[C@@H]21)C(=O)OCC', '%', 108),
  ('CCOc1ccc(Nc2nc(-c3c(C)nc4ccccn34)cs2)cc1', '%', 112),
  ('CC(C)[C@@H](C[S+](=O)([O-])C(C)C)N1C(=O)[C@@](C)(CC(=O)O)C[C@H](c2cccc(Cl)c2)[C@H]1c1ccc(Cl)cc1', '%', 145),
  ('CO[C@H]1C[C@@H]2CC[C@@H](C)[C@@](O)(O2)C(=O)C(=O)N2CCCC[C@H]2C(=O)O[C@H]([C@H](C)C[C@@H]2CC[C@@H](OC(=O)C(C)(CO)CO)[C@H](OC)C2)CC(=O)[C@H](C)/C=C(\C)[C@@H](O)[C@@H](OC)C(=O)[C@H](C)C[C@H](C)/C=C/C=C/C=C/1C', '%', 108),
  ('OC(=O)\C1=C\N(C2=CC=C(F)C=C2)C3=C(C=C(F)C(=C3)N4CCNCC4)C1=O', '%', 106),
  ('CC1(C)OC2CC3C4CC(F)C/5=C/C(=O)/C=C\C5(C)C4C(O)CC3(C)[C@@]2(O1)C(=O)CO (stereo partly specified)', '%', 123),
  ('CN1\C(=C(\O)C2=C(C=CS2)[S+]1([O-])=O)C(=O)NC3=CC=CC=N3', '%', 110);

Prompt: Quick one: cell viability of COc1cc(Nc2ncc(F)c(Nc3ccc4c(n3)NC(=O)C(C)(C)O4)n2)cc(OC)c1OC ?
Completion: 105

Prompt: Quick one: cell viability of CN(C/C=C/C#CC(C)(C)C)Cc1cccc2ccccc12 ?
Completion: 107

Prompt: Look up cell viability for this compound: CC1=CC=CC=C1CN2C(=O)C/3=C(/CCN(CC4=CC=CC=C4)C3)N\5CC\N=C25
Completion: 120

* * *

test system: NOMO1; experiment: cell viability relative to DMSO control; higher = less cytotoxic; settings: HPLM + 10% dialyzed FBS; 48 h; 46.1 µM
Criterion: cell viability strictly less than 90%. Met: 1. Not met: 0.

Example cases with answers are listed next.
INSERT INTO assay_data (chemical_string, target_under_test, class) VALUES
  ('CC(C)(C)c1cc(C=C(C#N)C#N)cc(Br)c1O', 'NOMO1', 0),
  ('c1cc(CN2CCCNCCNCCCNCC2)ccc1CN1CCCNCCNCCCNCC1', 'NOMO1', 0),
  ('COc1cc2c(Oc3ccc(NC(=O)C4(C(=O)Nc5ccc(F)cc5)CC4)cc3F)ccnc2cc1OCCCN1CCOCC1', 'NOMO1', 1);

# input for lookup
Prompt: hey, is cell viability for CC1(C)CCC(=C(CN2CCN(CC2)C3=CC=C(C=C3)C(=O)N[S+]([O-])(=O)C4=CC(=C(N[C@H](CCN5CCOCC5)CSC6=CC=CC=C6)C=C4)[S+]([O-])(=O)C(F)(F)F)\C1)/C7=CC=C(Cl)C=C7 lower than 90% or not?
Completion: 1

* * *

system: P12-Ichikawa; test: cell viability relative to DMSO control; higher = less cytotoxic; settings: HPLM + 10% dialyzed FBS; 48 h; 0.0211 µM
Measure: cell viability (%)
Could you give me the number in %? Just the number is fine.

INSERT INTO assay_data (molecule, unit_label, result_value) VALUES
  ('COc1cc(C)c(Sc2cnc(NC(=O)c3ccc(CNC(C)C(C)(C)C)cc3)s2)cc1C(=O)N1CCN(C(C)=O)CC1 (centres undefined)', '%', 120),
  ('OC(=O)\C1=C\N(C2=CC=C(F)C=C2)C3=C(C=C(F)C(=C3)N4CCNCC4)C1=O', '%', 124),
  ('CC1=CC=CC=C1CN2C(=O)C/3=C(/CCN(CC4=CC=CC=C4)C3)N\5CC\N=C25', '%', 119),
  ('CC(=O)O[C@@]1(CC[C@H]2[C@@H]3\C=C(C)/C4=C/C(=O)CC[C@]4(C)[C@H]3CC[C@]12C)C(C)=O', '%', 114),
  ('Cc1cccc(C#Cc2ccccc2)n1', '%', 124);

Prompt: Consider the molecule CCN(CC)C(=S)SSC(=S)N(CC)CC and give its measured cell viability.
Completion: 120

Prompt: So what does the record say about cell viability for O=C(/C=C/c1c(C(=O)[O-])[nH]c2cc(Cl)cc(Cl)c12)Nc1ccccc1 ?
Completion: 103

Prompt: Quick one: cell viability of CCc1c(C(=O)C(N)=O)c2c(OCC(=O)O)cccc2n1Cc1ccccc1 ?
Completion: 105

Prompt: For the molecule Oc1ccc(C2CCN(c3ccnc4ccccc34)CC2)cc1O , what cell viability is on record?
Completion: 113

* * *

test system: NOMO1; assay: cell viability relative to DMSO control; higher = less cytotoxic; settings: RPMI 5 mM glucose + 10% FBS; 48 h; 0.00702 µM
Measure: cell viability (%)
Number only, in %; omit the unit.

INSERT INTO results (chemical_string, result_value) VALUES
  ('OC[C@H]1O[C@H]([C@@H](F)[C@@H]1O)N2\C=C/C(=O)NC2=O', 97);

Prompt: Reported cell viability, molecule Cc1cccc(-c2nn(C(=S)Nc3ccccc3)cc2-c2ccnc3ccccc23)n1 : ____
Completion: 109

Prompt: Which cell viability value is on record for CC\1=C(C(=O)N(\C=C1)C2=CC=C(C=C2)C3=NC=CO3)/C4=CC5=CN=C(N)N=C5C=C4 ?
Completion: 96.1

Prompt: Query (molecule): CC(C)n1nc(-c2ccc3oc(N)nc3c2)c2c(N)ncnc21 ; field requested: cell viability
Completion: 83.3

Prompt: What value of cell viability has been reported for the following molecule? Clc1cc(Cl)cc(CNc2ncncc2-c2ccc3c(c2)OCO3)c1
Completion: 87.6
